Test system: eIF2α in HEK293-EGFP-eIF2α cells
test-description: PERK Cellular Assay (HEK293-EGFP-eIF2α cells, tunicamycin-induced ER stress, TR-FRET)
Type: cell-based
test-context: tunicamycin 2 hours
# IC50 per record follows

[2H]C([2H])([2H])c1nc(-c2ccc(NC(=O)C(O)c3cccc(Cl)c3)c(F)c2F)c2c(N)nc(C)cn12 (stereo not drawn) [Example 140] ... 1 to 25 nM
[2H]C([2H])([2H])c1nc(-c2ccc(NC(=O)C(O)c3cccc(C(F)(F)F)c3)c(F)c2F)c2c(N)ncc(C(F)(F)F)n12 (stereo not drawn) [Example 148] ... 1 to 25 nM
Cc1cnc(N)c2c(-c3ccc(NC(=O)C(O)c4cccc(F)c4)cc3F)nc(C)n12 (stereo not drawn) [Example 71] ... 51 to 100 nM
[2H]C([2H])([2H])c1nc(-c2ccc(NC(=O)C(O)c3cc(F)cc(F)c3)cc2F)c2c(N)ncc(C)n12 (stereo not drawn) [Example 104] ... 1 to 25 nM
Cc1cc(NC(=O)C(O)c2cccc(Cl)c2)ccc1-c1nc(C)n2c(C)cnc(N)c12 (stereo not drawn) [Example 39] ... 101 to 250 nM
[2H]C([2H])([2H])c1nc(-c2ccc(NC(=O)C(O)c3cc(F)cc(C(F)(F)F)c3)cc2C)c2c(N)ncc(C)n12 (stereo not drawn) [Example 54] ... 1 to 25 nM
[2H]C([2H])([2H])c1nc(-c2ccc(NC(=O)C(O)c3cc(F)cc(F)c3)cc2F)c2c(N)ncc(C)n12 (stereo not drawn) [Example 105] ... 26 to 50 nM
[2H]C([2H])([2H])c1nc(-c2ccc(NC(=O)C(O)c3cccc(C(F)(F)F)c3)c(F)c2F)c2c(N)ncc(C)n12 (stereo not drawn) [Example 147] ... 101 to 250 nM

--- query ---
For the compound [2H]C([2H])([2H])c1nc(-c2cnc(NC(=O)C(O)c3cccc(F)c3)cc2C)c2c(N)ncc(C)n12 (stereo not drawn) [Example 180] , what IC50 is on record? 501 to 1000 nM
